Data credit: the supplement of paper PMC9170038

- Tested on: MS2 coat protein
- assay_text: apparent KD of MS2 coat protein; designed switch direction (-1 OFF switch, 1 ON switch): 1; higher = weaker reporter binding
- measurement_conditions: input ligand: microRNA oligo, concentration not stated
Classify by measured apparent KD of MS2 coat protein: 1 if it is equal to or exceeds 30 nM, -1 if it is smaller.

Illustrative cases are given below, each with its answer.
[
  {
    "residue_sequence": "GUAGCAUACCGAGGAUAUUCAUAUUACAUGAGGAUCACCCAUGUUAAAGAUAGGCGAAAGCCUUGGGAGAAGGCGGAAUGCUAC [Xeonanis - 20 Mod68] (Eterna round: R96, puzzle: Same State NG 2)",
    "category_label": -1
  },
  {
    "residue_sequence": "AUUGCUGUCACAGGAUAUCAUGCGGAAAUCGCGUGAGAAGGGUGGACUCUGUCAUUCACGGAGGACAUGAGGAUCACCCAUGUC [SS NG10LRO18] (Eterna round: R96, puzzle: Same State NG 1)",
    "category_label": -1
  },
  {
    "residue_sequence": "GCCGUAAACAUGAGGAUCACCCAUGUAAACGCGAGAGUGGAUGAGGAUAUCGAUGGGUUUCCCGUCGAGAAGGCGUGGGUCGGC [JL SSNG3 3.99] (Eterna round: R96, puzzle: Same State NG 3)",
    "category_label": 1
  }
]

input: Could you verify whether the entry AGAUCAUGACGAGGAUAUGGUACAUGAGGAUCACCCAUGUAUGUACCACGACGCGUACGUCGAAUCCAGAAGGCGUCGUGGUCA [JL SSNG2 1.07] (Eterna round: R96, puzzle: Same State NG 2) shows apparent KD of MS2 coat protein of no less than 30 nM?
output: -1

input: Same for UCGUCCUCGUGCUAGGAUAUCCAUCGUAAAACAUGAGGAUCACCCAUGUAGAAAUGCGCCUACGAGGAGAAGGAGCGAUGUGGAU [Velemageer] (Eterna round: R96, puzzle: Same State 2)
output: -1

input: Same for AUGCUCGUGUGAGGAUAUGCCGCCGUUUCGGCUGCAGAAGGUGCUACGUUACAUGAGGAUCACCCAUGUCUCUGUUGUUUCGUG [salish99_SSNG1_r04_942] (Eterna round: R96, puzzle: Same State NG 1)
output: -1

###

- System: MS2 coat protein
- assay_text: apparent KD of MS2 coat protein; higher = weaker reporter binding
- measurement_conditions: Eterna round: R107; input ligand: theophylline 20 uM
Give measured apparent KD of MS2 coat protein for each item. Keep answers brief.
Please report the result as a number followed by the unit.

Below are worked cases with known answers.
[
  {
    "residue_sequence": "AUAAGUAAUGUCUCGUGUAUUAUUACAGAUACCAGACUAUCCUAUGUCCCUUGGCAGCUGGAUUACAUGAGGAUCACCCAUGUGG [#11 Exclusion-TheophyllineA]",
    "apparent KD of MS2 coat protein": "49.5 nM"
  },
  {
    "residue_sequence": "CAAUAAGUAACUGAUACCAGUGUACUGACAUGAGGAUCACCCAUGUUGGGUUUUGUUGUACACCCUUGGCAGCAGAAUCUUAUUG [AstrosExyTheB#12]",
    "apparent KD of MS2 coat protein": "67.2 nM"
  }
]

Hi team, please reply with apparent KD of MS2 coat protein for each item in this list.
1. UAGAUAGAGGGAAGGAGCGCGAUAACAUAACAUGAGGAUCACCCAUGUAAGAAAUUAAUAAUGCAGGUAGGUCGCCCAAGAUGAU [Same State Arginine B gf1]
2. ACGUCACGUUUACUCGUGGUUUCGAUCGAUACCAGUAGCGAGAGUUACCCUUGGCAGCGACAUGAGGAUCACCCAUGUACGAAGA [XTheo A #25]
3. AUAUGAUCAUAGGAUACCAGAAAUGGUAUUCCUUUAUUUCUUACAUGAGGAUCACCCAUGUUCCCUUGGCAGCUUAUGAUCAUAU [ETHB #4]

output:
["15.1 nM", "14.5 nM", "169 nM"]

input: So what does the record say about apparent KD of MS2 coat protein for AGAAUAACACAUGAGGAUCACCCAUGUGAUACCAGCUAGGAAACUAGCCCUUGGCAGCACAUAAGGUGAUCCAGCUGCCAAGAAU [(M1)-(M2)-(T1)-(T2)-(M)'-(T)'_Design1_2/19/17] ?
output: 175 nM
